B1: TPR 5TU (parent)
chain: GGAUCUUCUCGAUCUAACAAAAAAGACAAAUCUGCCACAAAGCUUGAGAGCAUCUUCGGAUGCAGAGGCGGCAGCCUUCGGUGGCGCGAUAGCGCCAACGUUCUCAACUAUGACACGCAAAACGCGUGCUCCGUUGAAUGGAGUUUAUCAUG

variants of: B1; assay: polymerase ribozyme fitness, log enrichment relative to wild type (log ratio); higher = more active; in vitro selection for triplet polymerase activity
This sample holds only a part of the variants without activity.
# polymerase ribozyme fitness (log ratio) listing for each entry below
experimental-endpoint: polymerase ribozyme fitness (log ratio)

• C93A U134C = -1.59
• U61G C95G = -2.32
• A19C C54A C96U A122G G133C = -2.39
• A22U A47U C96U U148A = -4.14
• C38U U56A A60U C95A = -1.13
• C27U A122G = -2.4
• G140A U144A = -3.68
• G84U G141A = -1.4
• G59U U148G = -3.83
• C57G G67C = -4.16
• C54U U56C C93U A150U = 0.278
• A47G U53A = -0.375
• A91G G112C = -3.76
• C27U G84A A89G = -3.59
• A19C C51U A52G G84U A89U G124U G141U = -1.23
• A16G A73U G94U = -2.22
• A16U C57A = -1.96
• G46A C69A = -3.61
• C5G A37C G81A = -1.37
• A26C C36A U44G U55A G140C = -4.19
• U6G A41U U45C = -2.17
• A24U U45C U101G A106G = 0.694
• G84C C125G = -1.94
• A89U C95G A122G = -1.39
• A89G C95G C132U = -3.36
• C14U U145A = -1.55
• U6G G81C A91G = -2.46
• C85U U134G = -2.89
• C35G C87U C118U = -4.18
• A20G C96A = -1.84
• U55A G124U U139G = 0.0477
• A47C G94A = -2.54
• A73G G86A = -2.14
• A19U A21G U45G U56A G92U = -1.94
• A12U G58A = -0.217
• A22G C93A = -1.55
• C54U G59U G74A = -3.62
• C93A G136U = -4.17
• G48A G59A = -0.452
• G42U A106C = -4.17
• C14G U148A = -4.14
• A41G C51A G83A = -2.57
• A22G C93U = -0.637
• G59A G84U A98G A115U = -3.58
• C54U C72U = -0.468
• C96A G143C = -2.38
